src = patent US20260217813A1

Target: T1, human IL-23 (IL-23-His-Biotin, Akesobio, 20161209) (human, UniProt Q9NPF7 20-189; P29460 23-328)
T1 construct: His-tagged and biotinylated; also called human IL23-His-Biotin
T1 sequence (looked up) 1: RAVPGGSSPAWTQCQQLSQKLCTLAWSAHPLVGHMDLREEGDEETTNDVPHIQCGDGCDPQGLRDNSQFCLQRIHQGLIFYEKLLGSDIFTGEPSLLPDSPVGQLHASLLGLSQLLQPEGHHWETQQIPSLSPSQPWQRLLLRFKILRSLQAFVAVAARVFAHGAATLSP
T1 sequence (looked up) 2: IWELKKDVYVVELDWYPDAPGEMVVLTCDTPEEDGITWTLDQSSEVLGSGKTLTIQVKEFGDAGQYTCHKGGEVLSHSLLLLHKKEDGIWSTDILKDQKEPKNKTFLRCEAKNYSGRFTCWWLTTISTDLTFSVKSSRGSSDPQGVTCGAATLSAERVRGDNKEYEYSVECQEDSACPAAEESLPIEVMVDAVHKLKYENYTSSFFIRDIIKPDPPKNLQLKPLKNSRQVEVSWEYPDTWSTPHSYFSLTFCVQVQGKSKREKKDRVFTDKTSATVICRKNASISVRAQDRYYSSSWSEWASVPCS
Assay: FACS competition, IL-23-His-Biotin 2 µg/mL on 293T-IL-12RB1&IL-23R cells, antibody 10 µg/mL
Experimental: 2.1. […] 200 μL of 1% PBSA was added into each sample, and the mixture was centrifuged at 700×g for 5 min to discard the supernatant. According to experiment design, correspondingly diluted antibody (highest final concentration of 30 μg/mL, 3-fold dilution, 8 concentrations in total) and human IL-23 (IL-23-His-Biotin, Akesobio, 20161209) (final concentration of 2 μg/mL) were mixed at a ratio of 1:1, and a blank control was set. […]

[
  {
    "Binder": "H5L14 (antibody, human IgG1, kappa, V domains shown, IgG1/kappa) VH: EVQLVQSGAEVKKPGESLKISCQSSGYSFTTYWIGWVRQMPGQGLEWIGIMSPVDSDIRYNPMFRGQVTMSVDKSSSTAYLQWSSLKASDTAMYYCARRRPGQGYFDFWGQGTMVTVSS VL: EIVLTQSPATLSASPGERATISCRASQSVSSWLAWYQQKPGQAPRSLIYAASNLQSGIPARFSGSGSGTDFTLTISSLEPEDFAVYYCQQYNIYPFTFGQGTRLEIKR",
    "MFI": 16.7
  },
  {
    "Binder": "H5L11 (antibody, human IgG1, kappa, V domains shown, IgG1/kappa) VH: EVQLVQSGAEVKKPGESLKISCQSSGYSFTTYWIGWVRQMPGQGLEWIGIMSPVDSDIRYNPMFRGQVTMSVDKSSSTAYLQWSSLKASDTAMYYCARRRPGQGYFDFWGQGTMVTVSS VL: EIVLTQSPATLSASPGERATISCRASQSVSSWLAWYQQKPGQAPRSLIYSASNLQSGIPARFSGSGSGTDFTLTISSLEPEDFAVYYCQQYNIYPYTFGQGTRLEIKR",
    "MFI": 14.5
  },
  {
    "Binder": "H5L9 (antibody, human IgG1, kappa, V domains shown, Humanized anti-human IL-12/IL-23 p40 antibody; IgG1 (P01857) / kappa (P01834) constant regions) VH: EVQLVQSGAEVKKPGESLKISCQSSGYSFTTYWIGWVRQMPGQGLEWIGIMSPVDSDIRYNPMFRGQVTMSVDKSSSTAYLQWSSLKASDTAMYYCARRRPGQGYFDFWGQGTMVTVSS VL: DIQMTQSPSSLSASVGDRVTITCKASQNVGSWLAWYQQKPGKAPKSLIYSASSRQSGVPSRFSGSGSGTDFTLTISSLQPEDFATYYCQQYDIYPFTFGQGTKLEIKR",
    "MFI": 136
  },
  {
    "Binder": "ustekinumab (trade name Stelara) (antibody, V domains shown) VH: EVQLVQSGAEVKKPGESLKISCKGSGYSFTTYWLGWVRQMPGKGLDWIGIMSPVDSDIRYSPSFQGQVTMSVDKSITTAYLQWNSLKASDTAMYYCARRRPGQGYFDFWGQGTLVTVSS VL: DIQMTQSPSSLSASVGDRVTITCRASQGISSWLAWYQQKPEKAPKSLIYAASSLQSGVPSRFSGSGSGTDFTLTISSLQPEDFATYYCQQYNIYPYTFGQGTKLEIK",
    "MFI": 11.5
  }
]
